TARGET_OR_TEST_SYSTEM: T1, human PD-L1-Fc protein (human, UniProt Q9NZQ7 19-239)
T1 construct: Bought from R&D Systems; also called immobilised PD-L1-Fc; not shown: Fc part of the bought fusion protein, not described
T1 sequence (Q9NZQ7 19-239 limits assumed): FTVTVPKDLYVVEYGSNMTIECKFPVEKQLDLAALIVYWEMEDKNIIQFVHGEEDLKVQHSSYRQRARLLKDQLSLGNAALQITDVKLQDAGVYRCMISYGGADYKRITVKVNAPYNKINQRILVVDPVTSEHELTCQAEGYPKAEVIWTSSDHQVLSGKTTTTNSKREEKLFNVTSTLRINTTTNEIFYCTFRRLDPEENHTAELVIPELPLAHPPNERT
EXPERIMENTAL_DETAILS: ELISA, Fab on coated human PD-L1-Fc, pH 6
MEASUREMENT_KIND: pEC50
Note on pEC50: it is the negative log10 of concentration, concentration in mol/L.

// returns reported pEC50 for input Fab 8B06 (Fab, V domains shown, Purified Fab prepared from IgG with the Pierce kit; also called 8B06 Fab) VH: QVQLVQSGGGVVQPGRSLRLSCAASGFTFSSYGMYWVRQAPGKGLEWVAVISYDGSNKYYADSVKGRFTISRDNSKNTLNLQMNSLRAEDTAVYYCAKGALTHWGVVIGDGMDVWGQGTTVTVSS VL: NFMLTQPHSVSESPGKTVTISCRETELSRRLHYVRWYQQRPGSSPTTVIYEDDQRPSGVPDRFSGSIDSSSNSASLTISGLKTEDEADYYCQSFDSTNPWVFGGGTKLTVL
9.51
